biological target: Cytochrome P450 1A2 (Homo sapiens); assay: Inhibition of recombinant human CYP1A2 expressed in baculosomes preincubated for 10 mins followed by cofactor addition measured every minute for 10 mins using ethoxyresorufin as substrate by CYPEX assay
Sequence (P05177 whole entry): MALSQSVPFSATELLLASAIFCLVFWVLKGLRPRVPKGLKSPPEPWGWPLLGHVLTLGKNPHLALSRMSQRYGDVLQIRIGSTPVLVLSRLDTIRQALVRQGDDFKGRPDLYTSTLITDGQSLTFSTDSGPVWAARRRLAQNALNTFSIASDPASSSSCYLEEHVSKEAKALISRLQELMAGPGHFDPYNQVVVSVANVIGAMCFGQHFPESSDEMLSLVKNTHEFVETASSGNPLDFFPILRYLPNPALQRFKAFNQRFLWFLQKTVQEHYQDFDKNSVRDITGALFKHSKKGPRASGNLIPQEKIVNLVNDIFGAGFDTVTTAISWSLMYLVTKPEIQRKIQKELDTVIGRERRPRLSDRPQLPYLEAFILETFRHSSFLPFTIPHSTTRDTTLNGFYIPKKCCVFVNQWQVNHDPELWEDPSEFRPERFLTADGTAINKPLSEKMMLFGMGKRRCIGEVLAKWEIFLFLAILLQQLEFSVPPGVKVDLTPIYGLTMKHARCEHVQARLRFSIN
READOUT: IC50

// query Quickly give me recorded IC50 for Cn1c(SCCCN2CC3CCN(c4ccccc4C(F)(F)F)C3C2)nnc1-c1cccnc1 (stereo in doubt; 52a)
// result > 3 µM

// query Quickly give me recorded IC50 for Cc1ncoc1-c1nnc(SCCCN2CC3CCN(c4ccc(C(F)(F)F)cc4F)C3C2)n1C (stereo in doubt; 8b)
// result > 3 µM

// query Quickly give me recorded IC50 for Cc1ncoc1-c1nnc(SCCCN2CC3CCN(c4ccccc4)C3C2)n1C (stereo in doubt; 6b)
// result > 1 µM

// query Quickly give me recorded IC50 for Cn1c(SCCCN2CC3CCN(c4ccc(C(F)(F)F)cc4)C3C2)nnc1-c1cc[nH]c(=O)c1 (stereo in doubt; 55b)
// result > 20 µM

// query Quickly give me recorded IC50 for CC(C)Oc1ccccc1N1CCC2CN(CCCSc3nnc(-c4cnccn4)n3C)CC21 (stereo in doubt; 35b)
// result > 1 µM

// query Quickly give me recorded IC50 for Cn1c(SCCCN2CC3CCN(c4ccc(F)cc4F)C3C2)nnc1-c1cnccn1 (stereo in doubt; 36b)
// result > 1 µM

// query Quickly give me recorded IC50 for Cn1c(SCCCN2CC3CCN(c4ccc(C(F)(F)F)cc4)C3C2)nnc1-c1cnccn1 (stereo in doubt; 17b)
// result > 2 µM

// query Quickly give me recorded IC50 for Cn1c(SCCCN2CC3CCN(c4ccccc4)C3C2)nnc1C1CCOCC1 (stereo in doubt; 62a)
// result > 17 µM

// query Quickly give me recorded IC50 for Cc1ncoc1-c1nnc(SCCCN2CC3CCN(c4ccc(F)cc4)C3C2)n1C (stereo in doubt; 9a)
// result > 5 µM

---

Consider the following compounds; for each one, report its pKi.
biological target: UniProt P14416; experiment: Displacement of [3H]-spiperone from human dopamine D2 receptor expressed in CHO-K1 cell membranes after 120 mins by liquid scintillation counter method
Sequence (P14416 whole entry): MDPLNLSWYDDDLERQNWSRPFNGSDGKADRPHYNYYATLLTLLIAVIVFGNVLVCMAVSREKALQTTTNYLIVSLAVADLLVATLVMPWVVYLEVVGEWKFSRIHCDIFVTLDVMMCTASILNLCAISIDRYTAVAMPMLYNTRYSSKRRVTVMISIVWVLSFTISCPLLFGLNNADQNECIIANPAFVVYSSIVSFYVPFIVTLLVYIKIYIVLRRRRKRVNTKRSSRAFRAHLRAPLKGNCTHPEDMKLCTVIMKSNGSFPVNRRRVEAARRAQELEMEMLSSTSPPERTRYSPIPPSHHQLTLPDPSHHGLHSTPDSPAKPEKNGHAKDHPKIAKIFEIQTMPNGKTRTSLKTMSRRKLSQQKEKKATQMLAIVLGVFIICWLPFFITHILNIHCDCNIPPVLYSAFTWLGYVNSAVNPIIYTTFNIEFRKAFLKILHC
Scale explanation: pKi corresponds to minus log10 of a concentration expressed in moles per litre.

// query Quickly give me recorded pKi for Cc1ncoc1-c1nnc(SCCCN2CC3CCN(c4cccc(F)c4)C3C2)n1C (racemic)
// result 6.80

// query Quickly give me recorded pKi for Cc1ncoc1-c1nnc(SCCCN2CC3CCN(c4ccc(Cl)cc4Cl)C3C2)n1C (racemic)
// result 6.30

// query Quickly give me recorded pKi for Cn1c(SCCCN2CC3CCN(c4ccc(F)cc4)C3C2)nnc1-c1cnccn1 (racemic)
// result 6.70

// query Quickly give me recorded pKi for Cn1c(SCCCN2CC3CCN(c4ccc(C(F)(F)F)cc4)C3C2)nnc1-c1ccncc1 (racemic)
// result 6.40

// query Quickly give me recorded pKi for Cn1c(SCCCN2CC3CCN(c4ccccc4C(F)(F)F)C3C2)nnc1-c1cccnc1 (stereo in doubt; 52a)
// result 6.40

// query Quickly give me recorded pKi for Cn1c(SCCCN2CC3CCN(c4ccc(C(F)(F)F)cc4)C3C2)nnc1-c1cc[nH]c(=O)c1 (racemic)
// result 6.20

// query Quickly give me recorded pKi for Cn1c(SCCCN2CC3CCN(c4ccc(C(F)(F)F)cc4)C3C2)nnc1-c1ccccn1 (racemic)
// result 6.40

// query Quickly give me recorded pKi for Cc1ncoc1-c1nnc(SCCCN2CC3CCN(c4ccc(C(F)(F)F)cc4F)C3C2)n1C (stereo in doubt; 8a)
// result 5.80
